B1: TPR t1 (parent)
chain: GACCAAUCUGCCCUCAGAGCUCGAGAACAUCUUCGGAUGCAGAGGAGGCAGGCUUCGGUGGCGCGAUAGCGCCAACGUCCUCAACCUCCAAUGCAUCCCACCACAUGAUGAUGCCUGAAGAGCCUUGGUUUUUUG

- Variants of: B1
- Test Protocol: polymerase ribozyme fitness, log enrichment relative to wild type (log ratio); higher = more active; in vitro selection for triplet polymerase activity
Some variants, each annotated with its measured polymerase ribozyme fitness (log ratio).

A83U C85A U112A C114A = -3.32
C53A U54A C62U C80A C114A C124G U125A = -6.53
C13G G69C C98U = -3.93
C56G A74U U81A U87A = -4.29
C8A A121U = 2.6

For reference, reported polymerase ribozyme fitness (log ratio) for A118G G122U stands at 0.311

Looking up C28U A29G , I found its polymerase ribozyme fitness (log ratio) recorded as -5.97

Record summary for U9G A95C : reported polymerase ribozyme fitness (log ratio) = -1.41

Data point: U59A C64A A118U ; polymerase ribozyme fitness (log ratio) = -6.49

Reported polymerase ribozyme fitness (log ratio) ( A5C G17A ) = -4.76

What the record says about C12U C72U U96A C115U : polymerase ribozyme fitness (log ratio) is -1.92

Sample A5C C8U C34A A75U C79U C101G ; polymerase ribozyme fitness (log ratio) observed: -3.24

The variant listed as C49U C85G U96G has a reported polymerase ribozyme fitness (log ratio) of -2.99

Recorded result, U14G G48U C94A C101U G120C , polymerase ribozyme fitness (log ratio): -2.13

Note to self: polymerase ribozyme fitness (log ratio) recorded for G61A C79U C88A U129G was -1.53

For record C8G C56A the listed polymerase ribozyme fitness (log ratio) is 0.399

The reported polymerase ribozyme fitness (log ratio) of the variant U7C C62A C99G U112G U132C U134A G135U was -7.59

For record G61U U109A U125A the listed polymerase ribozyme fitness (log ratio) is -5.58
